# credit: the supplement of paper PMC7877785

# assay comment: self-splicing fitness, log relative to wild type (ln ratio); higher = more splicing; Tetrahymena group I intron in knt gene, E. coli kanamycin selection, DiMSum; sequences stand for … in CUCUCU…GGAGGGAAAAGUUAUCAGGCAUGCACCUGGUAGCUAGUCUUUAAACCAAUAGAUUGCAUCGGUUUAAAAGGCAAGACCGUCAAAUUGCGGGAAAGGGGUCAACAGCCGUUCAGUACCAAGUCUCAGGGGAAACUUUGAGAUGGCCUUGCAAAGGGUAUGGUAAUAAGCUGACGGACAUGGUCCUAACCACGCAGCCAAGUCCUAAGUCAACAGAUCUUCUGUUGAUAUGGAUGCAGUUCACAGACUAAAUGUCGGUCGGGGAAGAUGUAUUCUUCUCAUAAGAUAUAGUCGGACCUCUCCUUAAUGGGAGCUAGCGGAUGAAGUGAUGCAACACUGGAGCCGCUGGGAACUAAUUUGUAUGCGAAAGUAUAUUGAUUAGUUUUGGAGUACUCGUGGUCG;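 note: selection with 25 µg/mL kanamycin versus none on LB agar overnight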
# assay setup: 30 °C
Respond with True for self-splicing fitness (ln) values of -3 and above, False for values below.

polymer sequence	assigned class
UGACAGCAAUAUUACGGAAA	True
UGUUAGCAAUAUUACGACAC	False
ACCGAGCAAUAUUACGUCAG	False
CCGCAGCAAUAUUACGAUUC	False

Textbook exercise: given the entry GCCAAGCAAUAUUACGUCCU , state whether its self-splicing fitness (ln) is greater than or equal to -3.
True

Form field: self-splicing fitness (ln) at least -3? Entry: GGCAAGCAAUAUUACGCUUA
True

Dear colleague, could you confirm whether CCGUAGCAAUAUUACGUAUA has self-splicing fitness (ln) at or above -3?
True

Can AAGGAGCAAUAUUACGUCCU be said to have self-splicing fitness (ln) at or above -3?
True

Identify whether the reported self-splicing fitness (ln) of the following sequence is -3 or greater: GCUAAGCAAUAUUACGGGGA
True

Kindly determine if self-splicing fitness (ln) recorded for ACUAAGCAAUAUUACGGUAC is above or exactly -3.
True

Test whether the sequence ACUGAGCAAUAUUACGCGGG records self-splicing fitness (ln) of -3 or higher.
True

Does the sequence ACAGAGCAAUAUUACGCUGU have recorded self-splicing fitness (ln) that is -3 or more?
False

Tell me whether self-splicing fitness (ln) is at least -3 here: UAUAAGCAAUAUUACGACCA
True

// inclusive: self-splicing fitness (ln) at least -3? input: GUGAAGCAAUAUUACGCCAC
True

Please indicate if the recorded self-splicing fitness (ln) for AUCCAGCAAUAUUACGUUAG meets or exceeds -3.
False

# check: self-splicing fitness (ln) of AGUUAGCAAUAUUACGAUAA is greater than or equal to -3
True

---

# assay comment: self-splicing fitness, log relative to wild type (ln ratio); higher = more splicing; Tetrahymena group I intron in knt gene, E. coli kanamycin selection, DiMSum; sequences stand for … in CUCUCU…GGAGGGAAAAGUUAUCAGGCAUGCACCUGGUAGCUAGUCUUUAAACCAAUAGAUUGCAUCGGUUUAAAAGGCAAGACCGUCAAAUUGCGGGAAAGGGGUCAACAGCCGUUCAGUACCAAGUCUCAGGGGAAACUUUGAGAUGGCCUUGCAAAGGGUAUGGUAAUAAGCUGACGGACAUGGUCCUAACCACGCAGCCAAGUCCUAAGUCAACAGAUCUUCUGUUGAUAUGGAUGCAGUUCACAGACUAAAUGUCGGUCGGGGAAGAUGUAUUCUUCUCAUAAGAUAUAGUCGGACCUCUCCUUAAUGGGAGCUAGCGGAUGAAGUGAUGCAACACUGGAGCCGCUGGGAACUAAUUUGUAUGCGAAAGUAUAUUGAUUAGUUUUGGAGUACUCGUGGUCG
# assay setup: 30 °C
parameter: self-splicing fitness (ln)
Number only, no unit.

polymer sequence	self-splicing fitness (ln)
AUUUAGCAAUAUUACGUGGC	-3.57
AUAGAGCAAUAUUACGCACC	-1.1
ACUCAGCAAUAUUACGAACG	-0.623
CUCUAGCAAUAUUACGGAUG	-1.32
AAAAAGCAAUAUUACGGUCC	-0.603

Next, consider the following sequence.
So what's the measured self-splicing fitness (ln) for this one? CUUCAGCAAUAUUACGUGUU
-3.34
